These data points were gathered from PubChem BioAssay (NCATS).

System: W2
Assay: qHTS profiling for inhibitors of Plasmodium falciparum proliferation (AID 504749); note: nearly all actives have a fitted effect of over 60% in size; note: potency is the fitted concentration of half-maximal effect
Conditions: P. falciparum in erythrocytes, SYBR Green DNA, 72 h; series mostly up to 28.7 µM
Description: NIH National Institute of Allergy and Infectious Diseases [NIAID] NIH Chemical Genomics Center [NCGC] […] Because mature erythrocytes lack DNA, only Plasmodium-derived DNA is detected. NCGC Assay Protocol Summary: The SYBR Green viability assay was adapted from a method described previously (Plouffe et al., 2008). […] The following morning, fluorescence intensity at 485(14) nm excitation and 535(25) nm emission wavelengths was measured on an EnVision (Perkin Elmer) plate reader. […]
Records with an inconclusive call do not appear. Active and inactive are the calls of the source. Calls come from the whole dose curve; as a rule, active = well fitted inhibition curve with a large enough effect; inconclusive = small, poorly fitted or top-dose-only effect; inactive = flat fitted curve, though single readings scatter.
experimental.readout: Potency

Would you please look over these solved cases?
compound	Potency
C[C@H]1[C@H](NC(=O)/C(=N/OC(C)(C)C(=O)O)c2csc(N)n2)C(=O)N1S(=O)(=O)O (stereo in doubt)	inactive
COc1c(C)c2c(c(O)c1C/C=C(\C)CCC(=O)O)C(=O)OC2	2.56 µM (active)
CCCCOc1ccc(OCCCN2CCOCC2)cc1	inactive
CCCN1CCCC[C@H]1C(=O)Nc1c(C)cccc1C	4.78 µM (active)
COC(=O)[C@H]1[C@H]2C[C@H]3c4[nH]c5ccccc5c4CCN3C[C@H]2CC[C@@H]1O	inactive
CN(C)/N=N/c1nc[nH]c1C(N)=O	inactive
CCCCCCCCCCCCCCNCCO	9.53 µM (active)
CCN(CC)CCNC(=O)COc1ccc(Cl)cc1	13.5 µM (active)
O=C1[C@H]2CCCC[C@H]2C(=O)N1CCCCN1CCN(c2nsc3ccccc23)CC1	15.1 µM (active)
CN(C)CCOc1ccccc1Cc1ccccc1	0.0536 µM (active)

The record that follows has no Potency shown yet.
// query Find the measured Potency: item COC(=O)[C@@H]1CC2=CC(=O)CC[C@]2(C)[C@@]23O[C@@H]2C[C@@]2(C)[C@@H](CC[C@@]24CCC(=O)O4)[C@H]13 , target or system W2.
// result inactive

----------
Assay: AP1 Signaling Pathway (AID 357);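 note: ME-180 reporter cells stimulated with EGF at its EC50 level; % is set by controls: 0 for no effect and ±100 for the full control effect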
Conditions: ME-180 (cervical carcinoma) AP-1-bla reporter, EGF-induced, beta-lactamase ratio, 5 h; at 17.2 µM (top of the series)
Results filed as inconclusive are left out.
// reported activity change, negative = inhibition for each item listed
Field format: number, assumed %, no unit text.

Would you please look over these solved cases?
compound	activity change, negative = inhibition, %
CCCC1O[C@@H]2C[C@H]3[C@@H]4CCC5=CC(=O)C=C[C@]5(C)[C@H]4[C@@H](O)C[C@]3(C)[C@]2(C(=O)CO)O1 (some centres undefined)	2.92
Nc1nc2ncc(CNc3ccc(C(=O)N[C@@H](CCC(=O)O)C(=O)O)cc3)nc2c(=O)[nH]1	0.033
CC(=O)c1ccc2c(c1)N(CCCN1CCC(CCO)CC1)c1ccccc1S2	4.33

The record that follows has no activity change, negative = inhibition shown yet.
// query Which value of activity change, negative = inhibition has been reported for CC(C)(C)CC(C)(C)c1ccc(OCCOCC[N+](C)(C)Cc2ccccc2)cc1 in the records?
// result -12.6

----------
Test system: FAB9
Experiment: qHTS profiling for inhibitors of Plasmodium falciparum proliferation (AID 504749); note: nearly all actives have a fitted effect of over 60% in size
Conditions: P. falciparum in erythrocytes, SYBR Green DNA, 72 h; series mostly up to 28.7 µM
Records with an inconclusive call do not appear. Activity calls are given as the source filed them. Calls come from the whole dose curve; as a rule, active = well fitted inhibition curve with a large enough effect; inconclusive = small, poorly fitted or top-dose-only effect; inactive = flat fitted curve, though single readings scatter.
Outcome (select one): active, inactive

Solved cases (3 shown):
compound	category.label
CC(=O)OCC(=O)[C@@]1(OC(C)=O)[C@@H](C)C[C@H]2[C@@H]3C[C@H](F)C4=CC(=O)C=C[C@]4(C)[C@@]3(F)[C@@H](O)C[C@@]21C	inactive
Cc1c(F)c(N2CCNC(C)C2)cc2c1c(=O)c(C(=O)O)cn2C1CC1 (stereo unspecified)	inactive
CN(C)CC/C=C1\c2ccccc2Sc2ccc(Cl)cc21	active

// query Call for entry O=C(O)CCCCC(=O)O :
// result inactive

// query Call for entry O=C(O)CNC(=O)c1ccccc1 :
// result inactive

// query Call for entry CCOc1ccc(NC(=O)CC(C)O)cc1 (stereo unspecified) :
// result inactive

----------
Biological target: DNA dC->dU-editing enzyme APOBEC-3G (Homo sapiens) (UniProt Q9HC16)
Sequence (Q9HC16 whole entry, looked up): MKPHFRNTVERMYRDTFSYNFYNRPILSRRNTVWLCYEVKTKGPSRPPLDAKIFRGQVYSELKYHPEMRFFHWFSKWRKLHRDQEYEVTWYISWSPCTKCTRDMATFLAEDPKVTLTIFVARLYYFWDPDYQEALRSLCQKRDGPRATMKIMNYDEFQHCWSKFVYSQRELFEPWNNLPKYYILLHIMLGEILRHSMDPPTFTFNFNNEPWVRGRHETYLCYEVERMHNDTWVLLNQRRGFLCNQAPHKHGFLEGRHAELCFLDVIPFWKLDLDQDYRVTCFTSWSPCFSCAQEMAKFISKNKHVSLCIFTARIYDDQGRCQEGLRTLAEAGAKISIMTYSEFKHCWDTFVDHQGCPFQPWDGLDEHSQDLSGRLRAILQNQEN
Assay: qHTS for inhibitors of Vif-A3G interactions: Validation (AID 588379); note: 0% is about no effect
Details: Vif-A3G protein interaction assay; series mostly up to 46.1 µM
Calls of active or inactive are those of the source. Calls come from the whole dose curve; as a rule, active = well fitted inhibition curve with a large enough effect; inconclusive = small, poorly fitted or top-dose-only effect; inactive = flat fitted curve, though single readings scatter.
experimental.readout: outcome

Would you please look over these solved cases?
compound	outcome
CN=C(NC#N)NCCSCc1csc(N=C(N)N)n1	inactive
COc1cc(-c2ccc(=O)[nH]n2)ccc1OC(F)F	inactive
CN=C(NC#N)Nc1ccc(C2=NNC(=O)CC2C)cc1 (stereo not given)	inactive
CCN1CCC[C@H]1CNC(=O)c1c(OC)ccc(Br)c1OC	inactive

The record that follows has no outcome shown yet.
// query Which value of outcome has been reported for CC(C)NC[C@@H](O)COc1cccc2ccccc12 in the records?
// result inactive

----------
Assay: P-glycoprotein substrates identified in KB-8-5-11 adenocarcinoma cell line, qHTS therapeutic library screen (AID 1346987); note: nearly all actives have a fitted effect of over 65% in size
Settings: KB-8-5-11 (P-gp overexpressing) viability, CellTiter-Glo, 72 h; series mostly up to 44.5 µM
Method: The ATP-binding cassette transporters P-glycoprotein (P-gp) is known to limit brain penetration of many chemotherapy drugs. […] All cell lines were plated into 1536-well plates at 500 cells/well in 5 uL media. […] CellTiter-Glo reagent (Promega) was dispensed into the wells, incubated for 5 min and luminescence was read on a ViewLux instrument (Perkin-Elmer). […]
Records with an inconclusive call do not appear. Activity calls are given as the source filed them. Calls follow the shape of the dose curve; as a rule, active = well fitted inhibition curve with a large enough effect; inconclusive = small, poorly fitted or top-dose-only effect; inactive = flat fitted curve, though single readings scatter.
Outcome (select one): active, inactive

Solved cases (2 shown):
molecule	category.label
Cc1c(C(N)=O)cc([N+](=O)[O-])cc1[N+](=O)[O-]	inactive
COCc1c(C(C)C)nc(C(C)C)c(/C=C/[C@@H](O)C[C@@H](O)CC(=O)O)c1-c1ccc(F)cc1	active

// query Call for entry CC(=O)Oc1ccc2c(c1)CC[C@@H]1[C@@H]2CC[C@]2(C)[C@@H](O)CC[C@@H]12 :
// result active

// query Call for entry Oc1cc(O)c2c(c1)O[C@H](c1ccc(O)c(O)c1)[C@H](O)C2 :
// result inactive

// query Call for entry O=c1[nH]c(=O)n([C@H]2CCCO2)cc1F :
// result inactive

// query Call for entry CC(=O)OCC(=O)[C@@]1(O)[C@H](C)C[C@H]2[C@@H]3CCC4=CC(=O)C=C[C@]4(C)[C@@]3(F)[C@@H](O)C[C@@]21C :
// result inactive

// query Call for entry CCN1CCN(c2cc3c(cc2F)c(=O)c(C(=O)O)cn3C2CC2)CC1 :
// result inactive

// query Call for entry O=C(N/N=C/c1ccccc1O)c1ccncc1 :
// result inactive

// query Call for entry NC[C@H]1O[C@H](O[C@H]2[C@H](O[C@@H]3O[C@H](CO)[C@@H](O)[C@H]3O)C(O)[C@H](N)C[C@@H]2N)[C@H](N)[C@@H](O)[C@@H]1O (stereo partly specified) :
// result inactive

// query Call for entry Cc1ccc(C(=O)C(C)CN2CCCCC2)cc1 (stereo unspecified) :
// result inactive

// query Call for entry CCCCS(=O)(=O)N[C@@H](Cc1ccc(OCCCCC2CCNCC2)cc1)C(=O)O :
// result inactive

// query Call for entry CC(=O)N(O)CCCCCNC(=O)CCC(=O)N(O)CCCCCNC(=O)CCC(=O)N(O)CCCCCN :
// result inactive

// query Call for entry CN=C(NC#N)Nc1ccc(C2=NNC(=O)CC2C)cc1 (stereo unspecified) :
// result inactive

// query Call for entry O=C1c2ccccc2C(=O)C1c1ccccc1 :
// result inactive

----------
Tested on: ICS
Assay: qHTS profiling for inhibitors of Plasmodium falciparum proliferation (AID 504749); note: nearly all actives have a fitted effect of over 60% in size
Conditions: P. falciparum in erythrocytes, SYBR Green DNA, 72 h; series mostly up to 28.7 µM
Inconclusive results are not listed. Calls of active or inactive are those of the source. The call rests on the fitted dose curve; in most records, active means well fitted inhibition curve with a large enough effect; inconclusive means small, poorly fitted or top-dose-only effect; inactive means flat fitted curve, though single readings scatter.
Outcome (select one): active, inactive

// query Call for entry COc1cccc2c1C(=O)c1c(O)c3c(c(O)c1C2=O)C[C@@](O)(C(C)=O)C[C@@H]3O[C@H]1C[C@H](N)[C@H](O)[C@H](C)O1 :
// result active

// query Call for entry CC(C)(C)CC(C)(C)c1ccc(O)c(Cc2ccc(Cl)cc2Cl)c1 :
// result active

// query Call for entry C[N+]1(CCCCC[N+]2(C)CCCC2)CCCC1 :
// result inactive

// query Call for entry CC(O)(P(=O)(O)O)P(=O)(O)O :
// result inactive

// query Call for entry OC(CCN1CCCCC1)(c1ccccc1)c1ccccc1 :
// result active

// query Call for entry CCN1CCC[C@H]1CNC(=O)c1c(OC)ccc(Br)c1OC :
// result inactive

// query Call for entry CCCCCCc1ccc(O)cc1O :
// result inactive

// query Call for entry O=C1CCC(c2ccc(-n3ccnc3)cc2)=NN1 :
// result inactive

// query Call for entry NCCCC[C@H](N[C@@H](CCc1ccccc1)C(=O)O)C(=O)N1CCC[C@H]1C(=O)O :
// result inactive
